experiment.notes: Drug level in zebrafish brain at 10 mg/kg, po administered via gavage measured 0.5 hrs post compound administration by LC-MS/MS analysis
Assay type: ADME, organism-based, Danio rerio
assay.conditions: read-out: Drug uptake
readout.kind: concentration at 0.5 h (ng/g)
Give just the number in ng/g; leave the unit off.

So what does the record say about concentration at 0.5 h for `O=C(CC12CC3CC(CC(C3)C1)C2)Nc1cccc2nc(Cl)ccc12` ?
425

====

study.system: P2X purinoceptor 7 (Homo sapiens)
experiment.notes: Antagonist activity at human P2X7 receptor expressed in HEK293 cells assessed as inhibition of BzATP-induced EtBr uptake at 10 uM after 2 hrs by fluorescence assay relative to control
Assay type: cell-based
Active and inactive are the calls of the source. The rule behind the calls is not given here.
readout.kind: inhibition

// known answers, use as guide
[[record]]
input_smiles = "COC(=O)c1cc2c(NC(=O)C34CC5CC(CC(C5)C3)C4)cccc2n(Cc2ccc(OC)cc2)c1=O"
study_system = "P2X purinoceptor 7 (Homo sapiens)"
endpoint_value = "87%"

[[record]]
input_smiles = "COc1ccc(CC(=O)Nc2cccc3c2cc(C(=O)NCCc2ccc(C)cc2)c(=O)n3Cc2ccc(OC)cc2)cc1"
study_system = "P2X purinoceptor 7 (Homo sapiens)"
endpoint_value = "inactive"

[[record]]
input_smiles = "COc1ccc(Cn2c(=O)ccc3c(NC(=O)C45CC6CC(CC(C6)C4)C5)cccc32)cc1"
study_system = "P2X purinoceptor 7 (Homo sapiens)"
endpoint_value = "43%"

[[record]]
input_smiles = "COC(=O)c1cc2c(NC(=O)CCC3CCCCC3)cccc2n(Cc2ccc(OC)cc2)c1=O"
study_system = "P2X purinoceptor 7 (Homo sapiens)"
endpoint_value = "57%"


So what does the record say about inhibition for `COc1ccc(Cn2c(=O)c(C(=O)NCCc3ccc(C)cc3)cc3c(NC(=O)CCc4ccccc4)cccc32)cc1` ?
inactive

====

study.system: P2X purinoceptor 7 (Homo sapiens)
Sequence (whole entry): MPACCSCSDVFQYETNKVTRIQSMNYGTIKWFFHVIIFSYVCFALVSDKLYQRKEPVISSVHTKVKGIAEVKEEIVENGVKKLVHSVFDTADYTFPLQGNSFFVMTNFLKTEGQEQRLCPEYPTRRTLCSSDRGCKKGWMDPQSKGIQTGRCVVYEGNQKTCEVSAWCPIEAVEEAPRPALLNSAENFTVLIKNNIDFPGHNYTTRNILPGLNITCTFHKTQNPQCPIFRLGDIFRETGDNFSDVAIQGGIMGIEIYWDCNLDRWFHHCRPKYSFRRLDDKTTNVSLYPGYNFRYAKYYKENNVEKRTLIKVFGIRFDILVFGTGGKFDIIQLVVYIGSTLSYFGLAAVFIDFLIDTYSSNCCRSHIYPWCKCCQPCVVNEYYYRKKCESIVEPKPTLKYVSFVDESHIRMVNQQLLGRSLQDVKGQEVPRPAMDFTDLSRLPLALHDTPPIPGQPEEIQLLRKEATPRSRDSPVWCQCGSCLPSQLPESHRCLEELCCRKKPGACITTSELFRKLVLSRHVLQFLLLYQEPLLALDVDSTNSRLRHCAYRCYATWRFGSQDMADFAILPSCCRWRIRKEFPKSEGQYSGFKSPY
experiment.notes: Antagonist activity at human P2X7 receptor expressed in HEK293 cells assessed as inhibition of BzATP-induced EtBr uptake at 10 uM after 2 hrs by fluorescence assay relative to control
Format: cell-based
Active and inactive are the calls of the source. The calls are words filed in the database; no cut-off is given here.
readout.kind: inhibition

[[record]]
input_smiles = "COc1ccc(Cn2c(=O)c(C(=O)NCCc3ccc(Cl)cc3)cc3c(N)cccc32)cc1"
endpoint_value = "inactive"

[[record]]
input_smiles = "O=C(CC12CC3CC(CC(C3)C1)C2)Nc1cccc2nc(-c3ccc([N+](=O)[O-])cc3)ccc12"
endpoint_value = "94%"

[[record]]
input_smiles = "COC(=O)c1cc2c(NC(=O)CC34CC5CC(CC(C5)C3)C4)cccc2nc1Cl"
endpoint_value = "43%"

[[record]]
input_smiles = "COc1ccc(Cn2c(=O)c(C(=O)O)cc3c(NC(=O)C45CC6CC(CC(C6)C4)C5)cccc32)cc1"
endpoint_value = "41%"

[[record]]
input_smiles = "CCCC(=O)Nc1cccc2c1cc(C(=O)NCCc1ccc(OC)cc1)c(=O)n2Cc1ccc(OC)cc1"
endpoint_value = "inactive"

[[record]]
input_smiles = "COc1ccc(Cn2c(=O)c(C(=O)NCCc3ccc4c(c3)OCO4)cc3c(N)cccc32)cc1"
endpoint_value = "inactive"

[[record]]
input_smiles = "COC(=O)c1cc2c(NC(=O)c3ccccc3)cccc2n(Cc2ccc(OC)cc2)c1=O"
endpoint_value = "inactive"

[[record]]
input_smiles = "CCCOC(=O)c1cc2c(NC(=O)C34CC5CC(CC(C5)C3)C4)cccc2n(Cc2ccc(OC)cc2)c1=O"
endpoint_value = "87%"


So what does the record say about inhibition for `COC(=O)c1cc2c(NC(=O)C34CC5CC(CC(C5)C3)C4)cccc2n(Cc2ccc(F)cc2)c1=O` ?
86%

So what does the record say about inhibition for `O=C(Nc1cccc2nc(Cl)ccc12)C12CC3CC(CC(C3)C1)C2` ?
51%

So what does the record say about inhibition for `COc1ccc(Cn2c(=O)c(C(=O)NCCCc3ccccc3)cc3c(NC(=O)CCc4ccccc4)cccc32)cc1` ?
inactive

So what does the record say about inhibition for `O=C(CC1CCCCC1)Nc1cccc2nc(Cl)ccc12` ?
95%

So what does the record say about inhibition for `COc1ccc(Cn2c(=O)c(C(=O)NCCc3ccc(C)cc3)cc3c(NC(=O)COc4cccc(Cl)c4)cccc32)cc1` ?
inactive

So what does the record say about inhibition for `COc1ccc(Cn2c(=O)c(C(=O)NCCCc3ccccc3)cc3c(N)cccc32)cc1` ?
inactive

So what does the record say about inhibition for `COc1ccc(Cn2c(=O)c(C(=O)NCCc3ccc(C)cc3)cc3c(NC(=O)COc4ccc(Cl)cc4)cccc32)cc1` ?
inactive

So what does the record say about inhibition for `COc1ccc(-c2ccc3c(NC(=O)CC45CC6CC(CC(C6)C4)C5)cccc3n2)cc1` ?
97%
